- Tested on: ZR-75-1 cells
- assay_explanation: Proliferation assay ZR-75-1 (Alamar Blue, 144 h)
- Type: cell-based
- condition_parameters: Homo sapiens, ZR-75-1, 144 h, arithmetic mean, read-out: ZR75-1 proliferation assay, EC50 [M] (arithmetic mean)
Each entry below carries its recorded EC50.
observable: EC50

>>> result("CN(C)c1ccc2cc(C(=O)NS(=O)(=O)c3ccccc3-c3ccccc3)oc2c1F")
"> 2e-05 M"
>>> result("COCCOc1ccc(Cl)c(S(=O)(=O)NC(=O)c2cc3ccc(N(C)C)cc3o2)c1")
"> 2e-05 M"
>>> result("CN(CC1CC1)c1ccc2cc(C(=O)NS(=O)(=O)c3ccccc3-c3ccccc3)oc2c1")
"> 2e-05 M"
